# procedure_details: soluble fraction after stress (log2 fold change); higher = more stays soluble; pooled small domains, quantitative proteomics;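 note: 20 min heating vs room temperature control held 20 min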
# condition: stress: 75 degC
property_measured: soluble fraction (log2)
One number for each entry.

HMNGLPDLSRYTGVSIVDGLASVGSDSSFAYRAKIAETLGISDYKGSAGQNLEMIRKLGGKV	-0.517
HMYIKYETVLQNITERIAALRKNGTLVLDGERTLAAEFDASRGTIRKAMRQLEENGTILREGYVTRILPE	-1.95

Here are 2 sequences. What values of soluble fraction (log2) were reported for them?
1. HMKNAYDLKMLVKDNDGNIERNMKYYFFLANGSKVEGITDDNGYTKTITTIQPEKADLHLINDELI
2. HMTKTEFLEALRRALNGNMAAASVEDNLKFYENYFYSEEAKGRSEAAVLSELGDPRILARTLIDAAER

[-1.61, 0.154]

Here are 6 sequences. What values of soluble fraction (log2) were reported for them?
1. HMDNEYDKVYQAALSKLEGYPRSSITTAVIKDVVAQTIKYFEIKNFGYEDTIINQLQSAFTVKSSS
2. HMEIMELPEYVVRSGSGLDAFREKWDLWDQGLMYDLKDKRAVFPIFIDGVMIDAVGRALAGAEPKWLRYTG
3. HMWDEMKDQKLVEALLLLREDERKLIYQHVFEERTFDDISRINGLPPYKVKGIYYYAIRKIRKWMG
4. HMADLIVFTTDANKEKKVDDETYFYLDVVSDGKLVENYELTEKQYNYIKDLGVGEYVYNEKGKLDSYTAFT
5. HMDDHLRLSDNERISAMSALATHFTEGRLDTSEFDERTLAASQAKSRGDLRPLFDDLPGQLPAALSP
6. HMAELTTVQAADILHVSRPFLIKLLDEGQIPYHRVGKHRRIRMEDVMNYKRAIDQQREAVLDQLVAEA

1: -0.0883; 2: -0.176; 3: -2.26; 4: -0.00206; 5: 0.0298; 6: -0.371
